src = patent US11498920B2

# Test system: primary CLL
# ASSAY NAME: Cytotoxicity on panel of cell lines, TMRE viability (Example II.2)
# Assay type: cell-based
# TEST PARAMETERS: Homo sapiens, 24 hours, mean, control = 1, read-out: cell viability relative to control, primary CLL
EXPERIMENTAL ENDPOINT: viability at 30 µM (%)
Numbers only, in %.

As a guide, the following entries are already answered.
Cc1nc(-c2ccc(F)cc2)c(-c2ccnc3[nH]ccc23)n1C1CCCCC1 70
COCCCn1cnc(-c2ccc(F)cc2)c1-c1ccnc2[nH]ccc12 85
Fc1ccc(-c2ncn(Cc3ccoc3)c2-c2ccnc3[nH]ccc23)cc1 68

Exercise: Entry Fc1ccc(-c2ncn(C3CCCCC3)c2-c2ccnc3[nH]ccc23)cc1 has what viability at 30 µM?
Solution: 69
